Task for the reader: assign each of the following molecules its reported solubility.
TEST DESCRIPTION: physchem
EXPERIMENTAL CONDITIONS: organic solvent or mixture, solubility L in chlorobenzene

Input line: Name the reported solubility value associated with the molecule COc1ccc(N(c2ccc(OC)cc2)c2ccc(-c3ccc(N(c4ccc(OC)cc4)c4ccc5c(c4)c4cc(N(c6ccc(OC)cc6)c6ccc(-c7ccc(N(c8ccc(OC)cc8)c8ccc(OC)cc8)cc7)cc6)ccc4n5-c4ccccc4)cc3)cc2)cc1 [ID522]
Output line: 900 to 1400 mg/mL

Input line: Name the reported solubility value associated with the molecule CCN(CC)c1ccc(N(c2ccc(-c3ccc(N(c4ccc(OC)cc4)c4ccc(OC)cc4)cc3)cc2)c2ccc(-c3ccc(N(c4ccc(-c5ccc(N(c6ccc(OC)cc6)c6ccc(OC)cc6)cc5)cc4)c4ccc(N(CC)CC)cc4)cc3)cc2)cc1 [ID521]
Output line: 400 to 550 mg/mL

* * *

TEST DESCRIPTION: physchem
EXPERIMENTAL CONDITIONS: organic solvent or mixture, solubility in Toluene
READOUT KIND: solubility

Input line: Name the reported solubility value associated with the molecule COc1ccc(N(c2ccc(OC)cc2)c2ccc(N(c3ccccc3)c3ccc(-c4ccc(N(c5ccccc5)c5ccc(N(c6ccc(OC)cc6)c6ccc(OC)cc6)cc5)cc4)cc3)cc2)cc1 [ID320]
Output line: 280 mg/mL

Input line: Name the reported solubility value associated with the molecule COc1ccc(N(c2ccc(OC)cc2)c2ccc(-c3ccc(N(c4ccc(OC)cc4)c4ccc5c(c4)C(C)(C)c4cc(N(c6ccc(OC)cc6)c6ccc(-c7ccc(N(c8ccc(OC)cc8)c8ccc(OC)cc8)cc7)cc6)ccc4-5)cc3)cc2)cc1 [ID447]
Output line: > 520 mg/mL

Input line: Name the reported solubility value associated with the molecule CCN(CC)c1ccc(N(c2ccc(-c3ccc(N(c4ccc(OC)cc4)c4ccc(OC)cc4)cc3)cc2)c2ccc(-c3ccc(N(c4ccc(-c5ccc(N(c6ccc(OC)cc6)c6ccc(OC)cc6)cc5)cc4)c4ccc(N(CC)CC)cc4)cc3)cc2)cc1 [ID521]
Output line: 500 to 1000 mg/mL

Input line: Name the reported solubility value associated with the molecule COc1ccc(N(c2ccc(-c3ccc(N(c4ccc(OC)cc4)c4ccc(-c5ccc(N(c6ccc(OC)cc6)c6ccc(C)c(C)c6)cc5)cc4)cc3)cc2)c2ccc(-c3ccc(N(c4ccc(OC)cc4)c4ccc(C)c(C)c4)cc3)cc2)cc1 [ID519]
Output line: 240 to 350 mg/mL

* * *

TEST DESCRIPTION: physchem
EXPERIMENTAL CONDITIONS: organic solvent or mixture, solubility in Tetrahydrofuran
READOUT KIND: solubility

Input line: Name the reported solubility value associated with the compound COc1ccc(N(c2ccc(OC)cc2)c2ccc3c(c2)C(C)(C)c2cc(N(c4ccc(OC)cc4)c4ccc(-c5ccc(N(c6ccc(OC)cc6)c6ccc7c(c6)C(C)(C)c6cc(N(c8ccc(OC)cc8)c8ccc(OC)cc8)ccc6-7)cc5)cc4)ccc2-3)cc1 [ID518]
Output line: 550 to 1100 mg/mL

Input line: Name the reported solubility value associated with the compound COc1ccc(N(c2ccc(OC)cc2)c2ccc(-c3ccc(N(c4ccc(OC)cc4)c4ccc(N(c5ccc(OC)cc5)c5ccc(-c6ccc(N(c7ccc(OC)cc7)c7ccc(OC)cc7)cc6)cc5)cc4)cc3)cc2)cc1 [ID446]
Output line: 1000 to 2000 mg/mL

Input line: Name the reported solubility value associated with the compound COc1ccc(N(c2ccc(OC)cc2)c2ccc(-c3ccc(N(c4ccccc4)c4ccc(-c5ccc(N(c6ccccc6)c6ccc(-c7ccc(N(c8ccc(OC)cc8)c8ccc(OC)cc8)cc7)cc6)cc5)cc4)cc3)cc2)cc1 [ID321]
Output line: > 240 mg/mL

Input line: Name the reported solubility value associated with the compound COc1ccc(N(c2ccc(OC)cc2)c2ccc3c(c2)C2(c4cc(N(c5ccc(OC)cc5)c5ccc(OC)cc5)ccc4-3)c3cc(N(c4ccc(OC)cc4)c4ccc(OC)cc4)ccc3-c3ccc(N(c4ccc(OC)cc4)c4ccc(OC)cc4)cc32)cc1 [spiro-MeOTAD, reference compound]
Output line: 120 to 160 mg/mL

Input line: Name the reported solubility value associated with the compound CCOc1ccc(N(c2ccc(C3=CCC(N(c4ccc(OC)cc4)c4ccc(-c5ccc(N(c6ccc(OC)cc6)c6ccc(-c7ccc(N(c8ccc(OCC)cc8)c8cccc9ccccc89)cc7)cc6)cc5)cc4)C=C3)cc2)c2cccc3ccccc23)cc1 (stereo not drawn) [ID565]
Output line: > 850 mg/mL

Input line: Name the reported solubility value associated with the compound COc1ccc(N(c2ccc(OC)cc2)c2ccc(N(c3ccccc3)c3ccc(-c4ccc(N(c5ccccc5)c5ccc(N(c6ccc(OC)cc6)c6ccc(OC)cc6)cc5)cc4)cc3)cc2)cc1 [ID320]
Output line: > 280 mg/mL

Input line: Name the reported solubility value associated with the compound CCN(CC)c1ccc(N(c2ccc(-c3ccc(N(c4ccc(OC)cc4)c4ccc(OC)cc4)cc3)cc2)c2ccc(-c3ccc(N(c4ccc(-c5ccc(N(c6ccc(OC)cc6)c6ccc(OC)cc6)cc5)cc4)c4ccc(N(CC)CC)cc4)cc3)cc2)cc1 [ID521]
Output line: 440 to 580 mg/mL

Input line: Name the reported solubility value associated with the compound COc1ccc(N(c2ccc(OC)cc2)c2ccc(-c3ccc(N(c4ccc(OC)cc4)c4ccc5c(c4)C(C)(C)c4cc(N(c6ccc(OC)cc6)c6ccc(-c7ccc(N(c8ccc(OC)cc8)c8ccc(OC)cc8)cc7)cc6)ccc4-5)cc3)cc2)cc1 [ID447]
Output line: 750 to 1500 mg/mL

Input line: Name the reported solubility value associated with the compound COc1ccc(N(c2ccc(C)cc2)c2ccc(-c3ccc(N(c4ccc(OC)cc4)c4ccc(-c5ccc(N(c6ccc(OC)cc6)c6ccc(-c7ccc(N(c8ccc(C)cc8)c8ccc(OC)cc8)cc7)cc6)cc5)cc4)cc3)cc2)cc1 [ID572]
Output line: > 800 mg/mL

Input line: Name the reported solubility value associated with the compound COc1ccc(N(c2ccc(-c3ccc(N(c4ccc(OC)cc4)c4ccc(-c5ccc(N(c6ccc(OC)cc6)c6ccc7c(c6)C(C)(C)c6ccccc6-7)cc5)cc4)cc3)cc2)c2ccc(-c3ccc(N(c4ccc(OC)cc4)c4ccc5c(c4)C(C)(C)c4ccccc4-5)cc3)cc2)cc1 [ID453]
Output line: 340 to 680 mg/mL

Input line: Name the reported solubility value associated with the compound COc1ccc(N(c2ccc(OC)cc2)c2ccc(-c3ccc(N(c4ccc(OC)cc4)c4ccc(-c5ccc(N(c6ccc(OC)cc6)c6ccc(-c7ccc(N(c8ccc(OC)cc8)c8ccc(OC)cc8)cc7)cc6)c(C)c5)cc4C)cc3)cc2)cc1 [ID631]
Output line: 1000 to 2000 mg/mL

Input line: Name the reported solubility value associated with the compound COc1ccc(N(c2ccc(OC)cc2)c2ccc(-c3ccc(N(c4ccc(OC)cc4)c4ccc(-c5ccc(N(c6ccc(OC)cc6)c6ccc(-c7ccc(N(c8ccc(OC)cc8)c8ccc(OC)cc8)cc7)cc6)cc5)cc4)cc3)cc2)cc1 [ID367]
Output line: 370 to 550 mg/mL
